- assayExplanation: log D7.0 by RP-HPLC retention
- Format: physicochemical
- conditionDetails: Supelcosil ABZ+Plus column, Supelcosil, MeCN/NH4OAc, pH 7.0, read-out: Log D
measuredMetric: chromatographic logD
Numbers only.

Answer with the recorded chromatographic logD for the compound listed here: COc1cc2c(N3CC[C@@H](Oc4cnc5ccccc5n4)C3)ncnc2cc1OCCF [IV]
2.63

----------
- assayExplanation: log D7.2-7.4 by shake-flask method
- Type: physicochemical
- conditionDetails: overall value from HPLC and shake-flask determinations; read-out: experimental log D7.0–7.4
measuredMetric: logD

Answer with the recorded logD for the compound listed here: COc1cc2c(N3CC[C@@H](Oc4cnc5ccccc5n4)C3)ncnc2cc1OCC[18F] [[^18F]IV]
~2.7
